Experiment: qHTS assay for small molecule antagonists of retinoid X receptor alpha signaling (AID 588546);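 note: cells stimulated with 9-cis-retinoic acid as agonist; % is set by controls: 0 for no effect and ±100 for the full control effect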
Conditions: HEK293T RXRa-UAS-bla, beta-lactamase ratio, antagonist mode; measured here: W530 green channel, cytotoxicity proxy
Inconclusive results are not listed.
quantity_kind: max response (%)

1) O=C(O[C@@H]1Cc2c(O)cc(O)cc2O[C@@H]1c1cc(O)c(O)c(O)c1)c1cc(O)c(O)c(O)c1 -13.5
2) Nc1ccc(S(=O)(=O)O)cc1 -0.278
3) COc1ccc(/C=C/c2cc(OC)cc(=O)o2)cc1 19.1
4) CCO -7.92

---

Target: Rap guanine nucleotide exchange factor 3 (Homo sapiens) (UniProt O95398)
Sequence (O95398 whole entry, looked up): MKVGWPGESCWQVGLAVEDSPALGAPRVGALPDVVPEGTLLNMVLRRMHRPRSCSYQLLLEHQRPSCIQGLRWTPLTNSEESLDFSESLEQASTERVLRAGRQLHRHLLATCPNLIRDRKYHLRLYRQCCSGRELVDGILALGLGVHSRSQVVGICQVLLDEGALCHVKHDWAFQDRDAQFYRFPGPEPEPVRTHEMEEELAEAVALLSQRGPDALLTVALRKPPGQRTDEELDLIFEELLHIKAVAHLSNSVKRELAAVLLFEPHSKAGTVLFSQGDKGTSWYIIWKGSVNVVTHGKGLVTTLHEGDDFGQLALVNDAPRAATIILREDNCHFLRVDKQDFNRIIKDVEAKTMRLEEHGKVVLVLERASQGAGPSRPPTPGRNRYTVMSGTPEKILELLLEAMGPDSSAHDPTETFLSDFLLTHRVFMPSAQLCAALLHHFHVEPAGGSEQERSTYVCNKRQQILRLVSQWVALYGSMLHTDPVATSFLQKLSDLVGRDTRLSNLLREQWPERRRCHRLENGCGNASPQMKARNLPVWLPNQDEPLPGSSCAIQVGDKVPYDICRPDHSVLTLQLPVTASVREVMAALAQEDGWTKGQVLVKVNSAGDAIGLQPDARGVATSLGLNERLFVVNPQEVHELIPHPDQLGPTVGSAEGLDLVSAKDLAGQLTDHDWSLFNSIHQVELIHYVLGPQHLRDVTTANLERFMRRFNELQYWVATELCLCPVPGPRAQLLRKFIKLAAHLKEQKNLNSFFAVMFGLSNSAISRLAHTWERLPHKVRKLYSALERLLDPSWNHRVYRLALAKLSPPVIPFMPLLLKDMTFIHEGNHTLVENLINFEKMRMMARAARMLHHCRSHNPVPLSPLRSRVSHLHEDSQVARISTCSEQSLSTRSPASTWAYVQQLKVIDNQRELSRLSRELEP
Experiment: Counterscreen qHTS for antagonist of cAMP-regulated guanine nucleotide exchange factor 3 (EPAC1) (AID 1645888);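 note: fluorescence loss as bound BODIPY-GDP is released from Rap1B; % of control where 0% means no effect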
Details: Rap1B-BODIPY-GDP nucleotide exchange, fluorescence; series mostly up to 154 µM
Results filed as inconclusive are left out. Active and inactive are the calls of the source. The call rests on the fitted dose curve; in most records, active means well fitted inhibition curve with a large enough effect; inconclusive means small, poorly fitted or top-dose-only effect; inactive means no such curve, though single readings can be large or run the other way.
quantity_kind: activity change, negative = inhibition

molecule	observed_result
O=C(Nc1ccccc1C(=O)O)c1cccc(S(=O)(=O)Nc2ccc(Br)cc2)c1	inactive
O=C(N/N=C/c1ccc(OC(=O)c2ccccc2Cl)cc1)c1cc(O)cc(O)c1	inactive
O=c1cc(CN2CCN(S(=O)(=O)c3cccc(Cl)c3)CC2)c2ccc(O)cc2o1	inactive
O=C1C(=Cc2ccccc2Cl)CCc2ccccc21	inactive
COc1ccc(CNC(=O)C(C#N)c2nc3ccccc3nc2N2CCCC2)cc1 (stereo not given)	inactive
COc1ccc(CCNC(=O)CCCn2c(SCC(N)=O)nc3cc4c(cc3c2=O)OCO4)cc1OC	inactive
Cc1cc(C)nc(NS(=O)(=O)c2ccc(NC(=O)CN3C(=O)S/C(=C\c4ccccc4)C3=O)cc2)n1	inactive
O=c1c(/C=C(\O)c2ccccc2)nc2ccccc2n1-c1ccccc1	-1.75% [at 30.8 µM] (inactive)
COc1cc(C(c2c(C(=O)O)[nH]c3ccccc23)c2c(C(=O)O)[nH]c3ccccc23)ccc1OCc1ccccc1	inactive
CN(C)S(=O)(=O)c1ccc(N2CCCC2)c(C(=O)NCC2COc3ccccc3O2)c1 (stereo not given)	inactive
Cc1cccn2c(=O)c3cc(C#N)c(=NC(=O)c4ccccc4)n(Cc4ccco4)c3nc12	15.9% [at 30.8 µM] (inactive)
CCCc1cc2c(-c3ccccc3)cc(=O)oc2cc1OCc1ccc(C(=O)O)o1	inactive
C[C@H]1CN([C@@H](C)CO)S(=O)(=O)c2ccc(Br)cc2O[C@@H]1CN(C)Cc1cccc(F)c1	-8.18% [at 30.8 µM] (inactive)
CCc1ccc(NC(=O)/C(C#N)=C/c2cc3ccc(C)cc3nc2N2CCOCC2)cc1	-18.1% [at 30.8 µM] (inactive)
O=c1oc2c3c4c(cc2c(C(F)(F)F)c1CCN1CCOCC1)CCCN4CCC3	inactive
O=C(Nc1nc(-c2ccc(F)cc2)cs1)C1CCN(C(=O)c2ccc(F)cc2)CC1	inactive
N#CCC(=O)Nc1ccc(C(=O)OCC(=O)Nc2ccc3ccccc3c2)cc1	inactive
CC1=CC(=C(C#N)c2nc3ccccc3s2)C=C(C)N1Cc1ccco1	inactive
COc1ccccc1/C=C/C=c1\sc2nc(=O)c(Cc3ccccc3)nn2c1=O	inactive
COCc1c(C(=O)N2CCc3ccccc32)oc2ccccc12	inactive
